Data provenance: patent US9555038B2

tested on: HCV replicon 1AY93H; test: Cell-based HCV Replicon Assay A, replicon 1AY93H; conditions: replicon 1AY93H, read-out: 1A Y93H IC50
MEASUREMENT KIND: IC50 (pM)
Answers are plain numbers, in pM.

compound="COC(=O)NC(C(=O)N1[C@@H]2C[C@@H]2C[C@H]1c1ncc(-c2ccc3c(c2)cc2n3C(c3cnc(CC(C)C)s3)Oc3cc(-c4cnc([C@@H]5CCCN5C(=O)[C@@H](NC(=O)OC)C(C)C)[nH]4)cc(F)c3-2)[nH]1)C1CCOC(C)(C)C1 (single isomer, unassigned) [Compound 439]" measurement_kind=IC50 meas_value=4
compound="COC(=O)N[C@H](C(=O)N1CCC[C@H]1c1ncc(-c2cc(F)c3c(c2)OC(c2cnc(C4CC4)s2)n2c-3c(C)c3cc(-c4cnc([C@@H]5CCCN5C(=O)[C@@H](NC(=O)OC)C(C)C)[nH]4)ccc32)[nH]1)C(C)C (single isomer, unassigned)" measurement_kind=IC50 meas_value=270
compound="COC(=O)N[C@H](C(=O)N1CCC[C@H]1c1ncc(-c2cc(F)c3c(c2)OC(c2cnc(C4CC4)s2)n2c-3cc3cc(-c4cnc([C@@H]5CC6(C)CC6N5C(=O)[C@@H](NC(=O)OC)C(C)C)[nH]4)ccc32)[nH]1)C(C)C (single isomer, unassigned) [Compound 518]" measurement_kind=IC50 meas_value=16

What value of measured IC50 is listed for COC(=O)NC(C(=O)N1[C@@H]2C[C@@H]2C[C@H]1c1ncc(-c2ccc3c(c2)cc2n3C(c3cnc(CC(C)C)s3)Oc3cc(-c4cnc([C@@H]5CCCN5C(=O)[C@@H](NC(=O)OC)C(C)C)[nH]4)cc(F)c3-2)[nH]1)C1CCOC(C)(C)C1 (single isomer, unassigned) [Compound 437] ? 176

###

system: HCV replicon 1AY93H; assay: Cell-based HCV Replicon Assay A, replicon 1AY93H; conditions: read-out: 1A Y93H IC50, replicon 1AY93H
MEASUREMENT KIND: pIC50
One number for each entry, as −log10 of the molar value.

molecule="COC(=O)N[C@H](C(=O)N1CCC[C@H]1c1ncc(-c2cc(C)c3c(c2)OC(c2cnc(C4CC4)s2)n2c-3cc3cc(-c4cnc([C@@H]5C[C@H]6C[C@H]6N5C(=O)[C@@H](NC(=O)OC)C(C)(C)F)[nH]4)ccc32)[nH]1)C(C)C (single isomer, unassigned) [Compound 208]" target_or_system="HCV replicon 1AY93H" meas_value=10.61
molecule="COC(=O)NC(C(=O)N1[C@@H]2C[C@@H]2C[C@H]1c1ncc(-c2ccc3c(c2)cc2n3C(c3cnc(C4(C)CC4)s3)Oc3cc(-c4cnc([C@@H]5CCCN5C(=O)[C@@H](NC(=O)OC)C(C)C)[nH]4)cc(F)c3-2)[nH]1)C1CCOC(C)(C)C1 (single isomer, unassigned) [Compound 468]" target_or_system="HCV replicon 1AY93H" meas_value=9.81
molecule="CCc1ncc(C2Oc3cc(-c4cnc([C@@H]5CCCN5C(=O)[C@@H](NC(=O)OC)C(C)C)[nH]4)cc(F)c3-c3cc4cc(-c5cnc([C@@H]6C[C@H]7C[C@H]7N6C(=O)[C@@H](NC(=O)OC)C6C[C@@H](C)O[C@@H](C)C6)[nH]5)ccc4n32)s1 (single isomer, unassigned) [Compound 96]" target_or_system="HCV replicon 1AY93H" meas_value=11.43
molecule="CCCc1ncc(C2Oc3cc(-c4cnc([C@@H]5CCCN5C(=O)[C@@H](NC(=O)OC)C(C)C)[nH]4)cc(C)c3-c3cc4cc(-c5cnc([C@@H]6C[C@H]7C[C@H]7N6C(=O)[C@@H](NC(=O)OC)C(C)C)[nH]5)ccc4n32)s1 (single isomer, unassigned) [Compound 206]" target_or_system="HCV replicon 1AY93H" meas_value=10.64

Quick check: pIC50 of COC(=O)NC(C(=O)N1[C@@H]2C[C@@H]2C[C@H]1c1ncc(-c2ccc3c(c2)cc2n3C(c3cnc(C(C)(C)C)s3)Oc3cc(-c4cnc([C@@H]5CCCN5C(=O)[C@@H](NC(=O)OC)C(C)C)[nH]4)cc(F)c3-2)[nH]1)C(C)C (single isomer, unassigned) [Compound 323] ? 11.29
